Target: T1, human amylin receptor (AMY3) on CHO-K1/Ga15/AMY3 cells (human, UniProt P30988 25-474; O60896 24-148)
T1 sequence (looked up) 1: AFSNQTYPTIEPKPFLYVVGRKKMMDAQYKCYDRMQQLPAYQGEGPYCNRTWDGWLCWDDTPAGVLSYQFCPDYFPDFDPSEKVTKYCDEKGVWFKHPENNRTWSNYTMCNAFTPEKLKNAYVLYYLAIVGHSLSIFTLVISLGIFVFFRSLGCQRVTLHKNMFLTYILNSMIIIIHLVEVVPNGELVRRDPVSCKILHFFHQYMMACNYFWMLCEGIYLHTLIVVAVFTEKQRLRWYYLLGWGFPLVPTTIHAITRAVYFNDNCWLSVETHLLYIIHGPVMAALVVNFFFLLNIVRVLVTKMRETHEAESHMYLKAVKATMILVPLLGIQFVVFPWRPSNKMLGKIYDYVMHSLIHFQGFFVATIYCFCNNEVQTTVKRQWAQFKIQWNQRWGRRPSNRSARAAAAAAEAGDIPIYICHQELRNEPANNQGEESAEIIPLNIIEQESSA
T1 sequence (looked up) 2: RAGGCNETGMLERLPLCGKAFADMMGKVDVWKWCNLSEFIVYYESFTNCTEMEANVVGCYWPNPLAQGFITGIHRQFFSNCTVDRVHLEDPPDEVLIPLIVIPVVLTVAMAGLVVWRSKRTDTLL
Test: cell-based or functional assay
*1 amine or outer side, *2 acyl side, *3 side chain or, on linkers, in order; H or OH if unused. Bridges are numbered along the chain shown (N, C = ends). Primed or numbered codes have the meaning given here. Where no end group is shown, it is not given here. Side-chain parts run from the residue outwards. [ ]: non-standard residue; d: D form. The star is where a group is joined. C20 diacid = O=C(O)CCCCCCCCCCCCCCCCCCC(=O)*; γGlu = O=C(O)[C@H](CCC(=O)[*:2])N[*:1]; Hyp = O=C(O)[C@@H]1C[C@@H](O)CN1; Pip′ = not defined here; AEEA = NCCOCCOCC(=O)O
Recorded measurements of EC50, CRE-luciferase assay, one per entry
Give the value in nM but do not write nM after it.

Solved entries (count: 2):
RCNTATCATQRLADFLRHSSK([γGlu-C20 diacid])NLGPILPPTNVGSNT[Hyp]-NH2 (disulfide 2-7 (inferred)) [PD090] : 0.031
RCNTATCATQRLAEFLRHSSNNLK([γGlu-C20 diacid])PILPPTNVGSNT[Pip′]-NH2 (disulfide 2-7 (inferred)) [PD057] : 0.793

Next, consider the following binder.
Look up EC50, CRE-luciferase assay: {C20 diacid-AEEA-AEEA}-KCNTATCATQRLADFLRHSSNNLKPILPPTNVGSNTX-NH2 (disulfide 2-7 (inferred); not fully specified (residue 37); printed as KCNTATCATQRLADFLRHSSNNLKPILPPTNVGSNT-trans-Hyp-NH2) [PD187]
0.016
